# systemUnderTest: UniProtKB P81245
# Sequence (P81245 1-157): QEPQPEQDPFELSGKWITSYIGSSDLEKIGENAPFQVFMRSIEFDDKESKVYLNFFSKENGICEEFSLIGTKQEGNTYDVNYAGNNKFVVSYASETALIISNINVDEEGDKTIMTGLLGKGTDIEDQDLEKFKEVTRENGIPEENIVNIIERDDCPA
# procedureDetails: Competitive fluorescence binding assay with AMA as probe
# conditionDescription: OBP-native-iso3 1 μM saturated with 2 μM AMA; competitor 0 to 15 μM
measuredProperty: IC50

1. C[C@]12CC[C@H]3[C@@H](CCC4=CC(=O)CC[C@@]43C)[C@@H]1CC[C@@H]2O [Testosterone, 17β-hydroxy-3-oxo-4-androstene, reference compound] | > 6 µM

---

# systemUnderTest: UniProt:P81245
# Sequence (P81245 1-157): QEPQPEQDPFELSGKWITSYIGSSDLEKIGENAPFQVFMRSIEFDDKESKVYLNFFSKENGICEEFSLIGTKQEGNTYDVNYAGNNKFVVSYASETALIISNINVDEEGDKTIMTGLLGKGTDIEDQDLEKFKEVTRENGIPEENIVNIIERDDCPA
# procedureDetails: Competitive fluorescence binding assay with AMA as probe
# conditionDescription: OBP-native-iso4 2.5 μM saturated with 3.75 μM AMA; competitor 0 to 15 μM
measuredProperty: IC50

1. C[C@]12CC[C@H]3[C@@H](CCC4=CC(=O)CC[C@@]43C)[C@@H]1CC[C@@H]2O [Testosterone, 17β-hydroxy-3-oxo-4-androstene, reference compound] | > 6 µM

---

# systemUnderTest: OBP-native-iso1 (Sus scrofa, UniProt P81245)
# Construct: Proteins were gently extracted from RM of pre-pubertal males of S. scrofa; from tissue; host or cells: RM (respiratory mucosa) extract of pre-pubertal male pigs, purified by two rounds of anion-exchange HPLC
# Sequence (P81245 1-157): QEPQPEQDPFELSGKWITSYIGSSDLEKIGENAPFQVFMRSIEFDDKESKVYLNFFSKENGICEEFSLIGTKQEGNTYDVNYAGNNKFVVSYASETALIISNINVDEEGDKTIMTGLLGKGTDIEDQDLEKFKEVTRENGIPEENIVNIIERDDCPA
# procedureDetails: Competitive fluorescence binding assay with AMA as probe
# conditionDescription: OBP-native-iso1 2.5 μM saturated with 3.75 μM AMA; competitor 0 to 6 μM; read-out: IC50
Parameter IC50: see the listing below.
measuredProperty: IC50 (nM)

1. CCCCCCCCCCCCCCCC(=O)O | 1030
2. CCCCCCCCCCCCCC(=O)O | 330

---

Here, each record is paired with measured IC50 data.
# systemUnderTest: OBP-native-iso4 (Sus scrofa, UniProt P81245)
# procedureDetails: Competitive fluorescence binding assay with AMA as probe
# conditionDescription: OBP-native-iso4 2.5 μM saturated with 3.75 μM AMA; competitor 0 to 15 μM; read-out: IC50
measuredProperty: IC50 (nM)

1) C[C@]12CCC(=O)C[C@@H]1CC[C@@H]1[C@@H]2CC[C@]2(C)C=CC[C@@H]12 | 1890
2) C[C@]12CC[C@@H](O)C[C@@H]1CC[C@@H]1[C@@H]2CC[C@]2(C)C=CC[C@@H]12 [Androstenol, 3α-hydroxy-5α-androst-16-ene] | 1430

---

Measured pIC50 by item
# systemUnderTest: UniProt:P81245
# Sequence (P81245 1-157): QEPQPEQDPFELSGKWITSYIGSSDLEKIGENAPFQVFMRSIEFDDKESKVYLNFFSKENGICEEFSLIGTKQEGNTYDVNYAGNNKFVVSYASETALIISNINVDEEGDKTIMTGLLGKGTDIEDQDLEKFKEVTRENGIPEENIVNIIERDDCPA
# procedureDetails: Competitive fluorescence binding assay with AMA as probe
# conditionDescription: OBP-native-iso3 1 μM saturated with 2 μM AMA; competitor 0 to 15 μM; read-out: IC50
pIC50: −log10 of the molar value.
measuredProperty: pIC50

1. C[C@]12CC[C@@H](O)C[C@@H]1CC[C@@H]1[C@@H]2CC[C@]2(C)C=CC[C@@H]12 [Androstenol, 3α-hydroxy-5α-androst-16-ene] | 5.59
2. C[C@]12CCC(=O)C[C@@H]1CC[C@@H]1[C@@H]2CC[C@]2(C)C=CC[C@@H]12 | 5.89

---

# systemUnderTest: OBP-native-iso1 (Sus scrofa, UniProt P81245)
# Construct: Proteins were gently extracted from RM of pre-pubertal males of S. scrofa; from tissue; host or cells: RM (respiratory mucosa) extract of pre-pubertal male pigs, purified by two rounds of anion-exchange HPLC
# Sequence (P81245 1-157): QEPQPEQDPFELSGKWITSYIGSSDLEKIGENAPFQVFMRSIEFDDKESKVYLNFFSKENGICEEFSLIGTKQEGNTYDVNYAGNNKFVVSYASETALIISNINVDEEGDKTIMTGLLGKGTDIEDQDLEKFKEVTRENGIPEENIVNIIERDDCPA
# procedureDetails: Fluorescence titration with the probe AMA
# Type: binding
# conditionDescription: OBP-native-iso1 at 2.5 μM, 50 mM Tris buffer pH 7.8, estimated
measuredProperty: Kd (nM)

1. Nc1cccc2cc3ccccc3cc12 | 370
